Source listed as patent US20190330224A1.

pIC50: −log10 of the molar value.
Hi! I'm sharing some pIC50 results obtained with UniProt:Q00955.
Sequence (Q00955 whole entry): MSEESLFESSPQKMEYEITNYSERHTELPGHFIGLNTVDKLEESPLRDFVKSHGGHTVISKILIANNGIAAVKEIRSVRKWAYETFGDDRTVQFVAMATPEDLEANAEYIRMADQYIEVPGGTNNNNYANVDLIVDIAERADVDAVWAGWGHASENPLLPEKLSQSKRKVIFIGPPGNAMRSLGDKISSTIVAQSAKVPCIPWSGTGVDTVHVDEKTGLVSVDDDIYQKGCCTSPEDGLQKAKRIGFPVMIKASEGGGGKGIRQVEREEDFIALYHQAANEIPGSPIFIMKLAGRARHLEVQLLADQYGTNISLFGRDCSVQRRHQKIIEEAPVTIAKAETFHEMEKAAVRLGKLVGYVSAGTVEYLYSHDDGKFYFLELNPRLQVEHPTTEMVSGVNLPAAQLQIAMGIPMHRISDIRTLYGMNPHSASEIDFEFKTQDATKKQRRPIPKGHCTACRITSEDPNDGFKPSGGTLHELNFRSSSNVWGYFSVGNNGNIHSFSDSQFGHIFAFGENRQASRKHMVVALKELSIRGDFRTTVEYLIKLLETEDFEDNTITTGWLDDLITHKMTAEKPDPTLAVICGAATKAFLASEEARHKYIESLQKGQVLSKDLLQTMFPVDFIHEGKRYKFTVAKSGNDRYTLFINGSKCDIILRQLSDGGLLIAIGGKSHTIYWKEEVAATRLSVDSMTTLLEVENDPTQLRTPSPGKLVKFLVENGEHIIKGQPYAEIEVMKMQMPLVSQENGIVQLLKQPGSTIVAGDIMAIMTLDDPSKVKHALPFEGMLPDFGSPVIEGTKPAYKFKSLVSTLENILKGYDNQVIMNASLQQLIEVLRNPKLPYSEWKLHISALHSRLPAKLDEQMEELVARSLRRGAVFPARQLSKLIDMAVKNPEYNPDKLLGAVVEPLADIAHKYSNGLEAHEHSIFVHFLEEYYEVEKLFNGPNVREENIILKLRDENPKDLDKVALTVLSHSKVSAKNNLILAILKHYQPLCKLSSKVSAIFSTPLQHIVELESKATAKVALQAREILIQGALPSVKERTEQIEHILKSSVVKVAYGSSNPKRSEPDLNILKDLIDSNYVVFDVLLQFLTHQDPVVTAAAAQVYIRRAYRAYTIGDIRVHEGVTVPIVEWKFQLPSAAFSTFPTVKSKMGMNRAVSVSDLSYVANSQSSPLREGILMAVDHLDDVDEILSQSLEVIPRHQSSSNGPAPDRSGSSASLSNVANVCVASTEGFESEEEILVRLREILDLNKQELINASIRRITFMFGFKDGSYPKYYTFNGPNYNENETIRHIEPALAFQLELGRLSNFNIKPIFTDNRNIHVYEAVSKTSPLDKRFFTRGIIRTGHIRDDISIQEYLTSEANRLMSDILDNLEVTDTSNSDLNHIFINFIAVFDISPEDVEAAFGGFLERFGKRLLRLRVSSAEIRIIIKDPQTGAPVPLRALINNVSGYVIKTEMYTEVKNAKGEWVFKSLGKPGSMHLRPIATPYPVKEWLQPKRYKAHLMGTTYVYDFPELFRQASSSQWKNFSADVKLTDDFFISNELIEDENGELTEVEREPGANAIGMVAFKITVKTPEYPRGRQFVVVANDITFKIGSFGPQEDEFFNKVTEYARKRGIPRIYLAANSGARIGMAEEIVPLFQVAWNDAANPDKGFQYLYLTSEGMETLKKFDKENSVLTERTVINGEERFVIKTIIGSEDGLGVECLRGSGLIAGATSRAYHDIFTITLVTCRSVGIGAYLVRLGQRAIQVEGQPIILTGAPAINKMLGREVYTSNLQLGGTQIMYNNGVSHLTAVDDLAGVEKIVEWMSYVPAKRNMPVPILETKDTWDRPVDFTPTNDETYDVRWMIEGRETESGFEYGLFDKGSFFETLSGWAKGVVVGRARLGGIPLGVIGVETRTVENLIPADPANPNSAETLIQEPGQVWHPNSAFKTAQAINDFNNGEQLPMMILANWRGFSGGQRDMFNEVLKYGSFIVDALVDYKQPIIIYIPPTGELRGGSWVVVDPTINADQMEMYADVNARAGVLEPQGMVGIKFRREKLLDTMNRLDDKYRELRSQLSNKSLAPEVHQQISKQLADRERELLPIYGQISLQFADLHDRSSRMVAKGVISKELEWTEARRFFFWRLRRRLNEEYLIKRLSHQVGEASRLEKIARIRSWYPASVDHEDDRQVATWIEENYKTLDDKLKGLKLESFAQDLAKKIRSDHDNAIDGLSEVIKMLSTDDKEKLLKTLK
metricName: pIC50

compound: COc1ccc(F)cc1[C@H](Cn1c(=O)n([C@@H]2CCN(C)C2=O)c(=O)c2c(C)c(-n3nccn3)sc21)O[C@H]1CC[C@@H](O)CC1 [Compound I-153]
metricName: pIC50
recordedValue: 8.70 to 9.15
//
compound: COc1ccc(F)cc1[C@H](Cn1c(=O)n([C@@H]2CNC(=O)C2)c(=O)c2c(C)c(-n3nccn3)sc21)OCCO [Compound I-91]
metricName: pIC50
recordedValue: 8.70 to 9.15
//
compound: COc1ccc(F)cc1[C@H](Cn1c(=O)n([C@H]2CCN(C)C2=O)c(=O)c2c(C)c(-n3cccn3)sc21)OCCC(=O)O [Compound I-180]
metricName: pIC50
recordedValue: 7.00 to 8.00
//
compound: COc1ccc(F)cc1[C@H](Cn1c(=O)n([C@H]2CCN(C)C2=O)c(=O)c2c(C)c(-n3nccn3)sc21)OC1CCOCC1 [Compound I-35]
metricName: pIC50
recordedValue: 8.70 to 9.15
//
compound: COc1ccc(F)cc1[C@H](Cn1c(=O)n([C@@H]2CCNC2=O)c(=O)c2c(C)c(-n3nccn3)sc21)O[C@H]1C[C@H](O)C1 [Compound I-186]
metricName: pIC50
recordedValue: 8.70 to 9.15
//
compound: COCCO[C@@H](Cn1c(=O)n([C@@]2(C)CCCN(C)C2=O)c(=O)c2c(C)c(-n3nccn3)sc21)c1cc(F)ccc1OC [Compound I-130]
metricName: pIC50
recordedValue: 8.00 to 8.70
//
compound: COc1ccc(F)cc1[C@H](Cn1c(=O)n([C@H]2CNC(=O)C2)c(=O)c2c(C)c(-n3nccn3)sc21)OCCO [Compound I-89]
metricName: pIC50
recordedValue: 8.70 to 9.15
//
compound: COCCO[C@@H](Cn1c(=O)n(C2CCN(C(C)C)C2=O)c(=O)c2c(C)c(-n3nccn3)sc21)c1cc(F)ccc1OC (stereo partly shown) [Compound I-4]
metricName: pIC50
recordedValue: 8.00 to 8.70
//
compound: COc1ccc(F)cc1[C@H](Cn1c(=O)n(C2CCN(C)C2=O)c(=O)c2c(C)c(-c3ncco3)sc21)OCCO (stereo partly shown) [Compound I-55]
metricName: pIC50
recordedValue: 8.70 to 9.15
//
compound: COCCO[C@@H](Cn1c(=O)n([C@@H]2CCN(C)C2=O)c(=O)c2c(C)c(-n3cccn3)sc21)c1cc(F)ccc1OC [Compound I-44]
metricName: pIC50
recordedValue: 8.00 to 8.70
//
compound: COc1ccccc1[C@H](Cn1c(=O)n(C2CCNC2=O)c(=O)c2c(C)c(-c3ncco3)sc21)OCCO (stereo partly shown) [Compound I-53]
metricName: pIC50
recordedValue: 7.00 to 8.00
//
compound: COCCO[C@@H](Cn1c(=O)n([C@H]2CCNC2=O)c(=O)c2c(C)c(-n3cccn3)sc21)c1cc(F)ccc1OC [Compound I-41]
metricName: pIC50
recordedValue: 7.00 to 8.00
//
compound: COc1ccccc1[C@H](Cn1c(=O)n([C@@H]2CCN(C)C2=O)c(=O)c2c(C)c(-n3nccn3)sc21)OC [Compound I-172]
metricName: pIC50
recordedValue: 8.70 to 9.15
//
compound: COc1ccc(F)cc1[C@H](Cn1c(=O)n(C2CCCN(C)C2=O)c(=O)c2c(C)c(-n3nccn3)sc21)OC1CCOCC1 (stereo partly shown) [Compound I-22]
metricName: pIC50
recordedValue: 8.70 to 9.15
//
compound: COc1ccc(F)cc1[C@H](Cn1c(=O)n([C@@H]2CCN(C)C2=O)c(=O)c2c(C)c(-n3nccn3)sc21)OCCC#N [Compound I-109]
metricName: pIC50
recordedValue: 8.70 to 9.15
//
compound: COc1ccc(F)cc1[C@H](Cn1c(=O)n([C@@H]2CCN(C)C2=O)c(=O)c2c(C)c(-n3nccn3)sc21)OCCCO [Compound I-155]
metricName: pIC50
recordedValue: 8.70 to 9.15
//
compound: COc1ccccc1[C@H](Cn1c(=O)n([C@H]2CCCNC2=O)c(=O)c2c(C)c(-c3ncco3)sc21)OCCO [Compound I-60]
metricName: pIC50
recordedValue: 8.70 to 9.15
//
compound: COCCO[C@@H](Cn1c(=O)n([C@@H]2CCNC2=O)c(=O)c2c(C)c(-n3cccn3)sc21)c1cc(F)ccc1OC [Compound I-42]
metricName: pIC50
recordedValue: 8.00 to 8.70
//
compound: COCCO[C@@H](Cn1c(=O)n(CCN2CCCNC2=O)c(=O)c2c(C)c(-n3nccn3)sc21)c1cc(F)ccc1OC [Compound I-100]
metricName: pIC50
recordedValue: 8.00 to 8.70
//
compound: CCN1CCCC(n2c(=O)c3c(C)c(-n4nccn4)sc3n(C[C@H](OC3CCOCC3)c3cc(F)ccc3OC)c2=O)C1=O (stereo partly shown) [Compound I-23]
metricName: pIC50
recordedValue: 8.70 to 9.15
//
compound: COCCO[C@@H](Cn1c(=O)n([C@]2(C)CCCN(C)C2=O)c(=O)c2c(C)c(-n3nccn3)sc21)c1cc(F)ccc1OC [Compound I-128]
metricName: pIC50
recordedValue: 8.00 to 8.70
//
compound: COc1ccc(F)cc1[C@H](Cn1c(=O)n([C@@H]2CCN(C)C2=O)c(=O)c2c(C)c(-n3nccn3)sc21)OC [Compound I-170]
metricName: pIC50
recordedValue: 8.70 to 9.15
//
compound: COc1ccc(F)cc1[C@H](COc1nc2sc(-n3nccn3)c(C)c2c(=O)n1[C@H]1CNC(=O)C1)OCCO [Compound I-102]
metricName: pIC50
recordedValue: 7.00 to 8.00
//
compound: Cc1c(-n2nccn2)sc2c1c(=O)n([C@@H]1CCN(C)C1=O)c(=O)n2C[C@H](O[C@H]1CC[C@@H](O)CC1)c1cc(F)ccc1O [Compound I-189]
metricName: pIC50
recordedValue: 8.70 to 9.15
//
compound: COc1ccc(F)cc1C(=O)Cn1c(=O)n([C@H]2CCN(C)C2=O)c(=O)c2c(C)c(-n3nccn3)sc21 [Compound I-161]
metricName: pIC50
recordedValue: 6.00 to 7.00

---

Property: IC50; scope: individual compounds
- subjectOfTest: Human ACC2 (Homo sapiens, UniProt O00763)
- Sequence (O00763 whole entry): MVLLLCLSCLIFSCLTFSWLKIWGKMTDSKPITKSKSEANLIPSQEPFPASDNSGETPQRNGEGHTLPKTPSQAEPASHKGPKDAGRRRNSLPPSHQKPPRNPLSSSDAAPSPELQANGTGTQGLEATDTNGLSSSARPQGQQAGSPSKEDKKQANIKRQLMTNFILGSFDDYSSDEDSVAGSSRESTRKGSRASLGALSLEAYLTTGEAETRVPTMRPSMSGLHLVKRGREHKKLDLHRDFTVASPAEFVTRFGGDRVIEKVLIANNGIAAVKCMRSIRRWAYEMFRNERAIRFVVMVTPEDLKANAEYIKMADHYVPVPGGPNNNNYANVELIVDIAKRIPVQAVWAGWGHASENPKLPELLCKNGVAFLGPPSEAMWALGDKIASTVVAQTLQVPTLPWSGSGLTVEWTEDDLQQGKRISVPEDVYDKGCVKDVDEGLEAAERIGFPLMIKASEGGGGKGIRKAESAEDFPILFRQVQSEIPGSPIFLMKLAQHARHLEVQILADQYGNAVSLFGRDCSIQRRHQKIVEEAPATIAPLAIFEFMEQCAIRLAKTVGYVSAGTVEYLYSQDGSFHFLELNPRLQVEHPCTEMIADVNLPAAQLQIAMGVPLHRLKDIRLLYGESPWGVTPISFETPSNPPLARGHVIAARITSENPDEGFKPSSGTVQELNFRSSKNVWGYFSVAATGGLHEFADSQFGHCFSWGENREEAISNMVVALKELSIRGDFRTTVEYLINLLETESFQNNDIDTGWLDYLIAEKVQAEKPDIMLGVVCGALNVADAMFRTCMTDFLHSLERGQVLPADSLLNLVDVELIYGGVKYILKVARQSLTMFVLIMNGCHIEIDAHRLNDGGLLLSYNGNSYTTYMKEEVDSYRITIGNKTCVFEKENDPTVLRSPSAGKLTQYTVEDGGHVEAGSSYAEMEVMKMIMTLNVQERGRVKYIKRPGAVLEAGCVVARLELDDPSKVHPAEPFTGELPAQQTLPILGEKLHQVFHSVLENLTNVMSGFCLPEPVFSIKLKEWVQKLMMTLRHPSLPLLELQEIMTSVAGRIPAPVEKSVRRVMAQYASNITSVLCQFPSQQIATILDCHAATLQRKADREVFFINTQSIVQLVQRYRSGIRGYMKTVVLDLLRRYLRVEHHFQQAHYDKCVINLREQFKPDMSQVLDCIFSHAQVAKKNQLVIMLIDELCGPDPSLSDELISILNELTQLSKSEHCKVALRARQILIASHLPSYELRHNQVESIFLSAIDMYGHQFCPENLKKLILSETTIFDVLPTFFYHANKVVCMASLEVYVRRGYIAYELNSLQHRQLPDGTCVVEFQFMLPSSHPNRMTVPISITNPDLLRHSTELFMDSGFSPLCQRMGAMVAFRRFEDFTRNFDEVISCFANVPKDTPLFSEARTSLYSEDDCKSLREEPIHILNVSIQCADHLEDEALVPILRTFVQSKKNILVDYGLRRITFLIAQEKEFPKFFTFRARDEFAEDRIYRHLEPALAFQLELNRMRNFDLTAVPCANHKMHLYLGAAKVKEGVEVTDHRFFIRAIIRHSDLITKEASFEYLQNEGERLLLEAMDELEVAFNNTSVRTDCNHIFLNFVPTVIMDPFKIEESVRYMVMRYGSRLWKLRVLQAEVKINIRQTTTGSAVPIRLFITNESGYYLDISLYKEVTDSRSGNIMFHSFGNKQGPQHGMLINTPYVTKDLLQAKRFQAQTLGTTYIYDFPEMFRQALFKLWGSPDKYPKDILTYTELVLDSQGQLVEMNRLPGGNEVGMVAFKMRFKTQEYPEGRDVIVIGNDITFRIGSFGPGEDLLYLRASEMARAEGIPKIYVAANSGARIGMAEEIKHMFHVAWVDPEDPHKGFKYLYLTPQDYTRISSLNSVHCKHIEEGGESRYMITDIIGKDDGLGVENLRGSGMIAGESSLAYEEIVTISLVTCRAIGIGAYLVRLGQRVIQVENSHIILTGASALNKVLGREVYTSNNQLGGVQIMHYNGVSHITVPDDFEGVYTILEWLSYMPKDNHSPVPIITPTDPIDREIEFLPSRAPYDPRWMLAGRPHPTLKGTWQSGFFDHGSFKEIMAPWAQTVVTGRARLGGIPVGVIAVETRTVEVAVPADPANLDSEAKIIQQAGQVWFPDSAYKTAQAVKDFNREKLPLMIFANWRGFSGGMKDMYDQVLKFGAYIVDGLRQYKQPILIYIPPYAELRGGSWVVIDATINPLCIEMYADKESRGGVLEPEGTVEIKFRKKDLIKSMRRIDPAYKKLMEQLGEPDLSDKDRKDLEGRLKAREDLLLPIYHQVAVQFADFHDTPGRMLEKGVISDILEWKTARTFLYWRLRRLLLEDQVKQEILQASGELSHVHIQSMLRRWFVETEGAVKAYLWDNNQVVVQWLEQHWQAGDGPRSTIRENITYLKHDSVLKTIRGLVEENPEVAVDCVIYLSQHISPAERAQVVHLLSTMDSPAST
metricName: IC50

compound: COc1ccc(F)cc1[C@H](Cn1c(=O)n([C@]2(C)CC(=O)N(C)C2)c(=O)c2c(C)c(-n3nccn3)sc21)OCCO [Compound I-121]
subjectOfTest: Human ACC2 (Homo sapiens, UniProt O00763)
recordedValue: 10 to 100 nM

compound: COc1ccc(F)cc1[C@H](COc1nc2sc(-n3nccn3)c(C)c2c(=O)n1[C@H]1CCN(C)C1=O)OCCCO [Compound I-156]
subjectOfTest: Human ACC2 (Homo sapiens, UniProt O00763)
recordedValue: > 1000 nM

compound: Cc1c(-n2nccn2)sc2c1c(=O)n([C@@H]1CCN(C)C1=O)c(=O)n2C[C@H](O[C@H]1CC[C@@H](O)CC1)c1cc(F)ccc1O [Compound I-189]
subjectOfTest: Human ACC2 (Homo sapiens, UniProt O00763)
recordedValue: 2 to 10 nM

---

- System: C. parapsilosis ATCC 22019
- assaySummary: Anti-Fungal Activity Assay (broth microtiter MIC), C. parapsilosis
- Assay type: cell-based, Candida parapsilosis
- experimentalSetup: Lodderomyces parapsilosis, ATCC22019, 48 h, 3 replicates; MIC recorded at 48 h; read-out: MIC C. parapsilosis ATCC 22019
Property: MIC; scope: individual compounds
metricName: MIC

compound: COCCO[C@@H](Cn1c(=O)n([C@@H]2CNC(=O)C2)c(=O)c2c(C)c(-n3nccn3)sc21)c1cc(F)ccc1OC
recordedValue: 2.1 to 4 µg/mL

compound: COCCO[C@@H](Cn1c(=O)n(CCN2CCCNC2=O)c(=O)c2c(C)c(-n3nccn3)sc21)c1cc(F)ccc1OC
recordedValue: 2.1 to 4 µg/mL

compound: COc1ccc(F)cc1[C@H](Cn1c(=O)n(C2CCCNC2=O)c(=O)c2c(C)c(-c3ncco3)sc21)OC1CCOCC1 (stereo partly drawn)
recordedValue: 2.1 to 4 µg/mL

---

Hi! I'm sharing some IC50 results obtained with UniProt:O00763.

molecule: COCCO[C@@H](Cn1c(=O)n(CCN2CCCC2=O)c(=O)c2c(C)c(-n3nccn3)sc21)c1cc(F)ccc1OC [Compound I-99]
subjectOfTest: UniProt:O00763
IC50: 10 to 100 nM
//
molecule: COCCO[C@@H](Cn1c(=O)n([C@H]2CCCNC2=O)c(=O)c2c(C)c(-n3nccn3)sc21)c1cc(F)ccc1OC [Compound I-29]
subjectOfTest: UniProt:O00763
IC50: 10 to 100 nM
//
molecule: COCCO[C@@H](Cn1c(=O)n([C@H]2CCN(C)C2=O)c(=O)c2c(C)c(-n3nccn3)sc21)c1cc(F)ccc1OC [Compound I-27]
subjectOfTest: UniProt:O00763
IC50: 10 to 100 nM
//
molecule: COc1ccc(F)cc1[C@H](Cn1c(=O)n([C@H]2CCNC2=O)c(=O)c2c(C)c(-n3nccn3)sc21)OC1CCOCC1 [Compound I-33]
subjectOfTest: UniProt:O00763
IC50: 2 to 10 nM
//
molecule: COCCO[C@@H](Cn1c(=O)n([C@@H]2CCNC2=O)c(=O)c2c(C)c(-n3nccn3)sc21)c1cc(F)ccc1OC [Compound I-26]
subjectOfTest: UniProt:O00763
IC50: 2 to 10 nM
//
molecule: COc1ccc(F)cc1[C@H](Cn1c(=O)n([C@]2(C)CNC(=O)C2)c(=O)c2c(C)c(-n3nccn3)sc21)OCCO [Compound I-119]
subjectOfTest: UniProt:O00763
IC50: 10 to 100 nM
//
molecule: COc1ccc(F)cc1[C@H](Cn1c(=O)n([C@]2(C)CCCNC2=O)c(=O)c2c(C)c(-n3nccn3)sc21)OCCO [Compound I-126]
subjectOfTest: UniProt:O00763
IC50: 2 to 10 nM
//
molecule: COc1ccc(F)cc1C(=O)Cn1c(=O)n([C@H]2CCN(C)C2=O)c(=O)c2c(C)c(-n3nccn3)sc21 [Compound I-161]
subjectOfTest: UniProt:O00763
IC50: > 1000 nM
//
molecule: COc1ccc(F)cc1[C@H](Cn1c(=O)n([C@H]2CCCNC2=O)c(=O)c2c(C)c(-n3nccn3)sc21)OC1CCOCC1 [Compound I-37]
subjectOfTest: UniProt:O00763
IC50: 2 to 10 nM
//
molecule: Cc1c(-n2nccn2)sc2c1c(=O)n([C@H]1CCN(C)C1=O)c(=O)n2C[C@H](O[C@H]1CC[C@@H](O)CC1)c1cc(F)ccc1O [Compound I-190]
subjectOfTest: UniProt:O00763
IC50: 10 to 100 nM
//
molecule: COc1ccc(F)cc1[C@H](Cn1c(=O)n([C@@H]2CCCN(C)C2=O)c(=O)c2c(C)c(-n3nccn3)sc21)OC1CCOCC1 [Compound I-40]
subjectOfTest: UniProt:O00763
IC50: 10 to 100 nM
//
molecule: COc1ccc(F)cc1[C@H](Cn1c(=O)n([C@@H]2CCCNC2=O)c(=O)c2c(C)c(-n3nccn3)sc21)OC1CCOCC1 [Compound I-38]
subjectOfTest: UniProt:O00763
IC50: 10 to 100 nM
//
molecule: COCCO[C@@H](COc1nc2sc(-n3nccn3)c(C)c2c(=O)n1[C@@H]1CCN(C(=O)C(C)C)C1)c1cc(F)ccc1OC [Compound I-101]
subjectOfTest: UniProt:O00763
IC50: > 1000 nM
//
molecule: COc1ccc(F)cc1[C@H](Cn1c(=O)n([C@H]2CCCNC2=O)c(=O)c2c(C)c(-n3nccn3)sc21)OCCO [Compound I-70]
subjectOfTest: UniProt:O00763
IC50: 10 to 100 nM
//
molecule: COc1ccc(F)cc1[C@H](Cn1c(=O)n([C@H]2CCCN(C(C)C)C2=O)c(=O)c2c(C)c(-n3nccn3)sc21)OCCO [Compound I-74]
subjectOfTest: UniProt:O00763
IC50: 10 to 100 nM
//
molecule: COc1ccc(F)cc1[C@H](Cn1c(=O)n([C@@]2(C)CCCN(C)C2=O)c(=O)c2c(C)c(-n3nccn3)sc21)OCCO [Compound I-131]
subjectOfTest: UniProt:O00763
IC50: 10 to 100 nM
//
molecule: COc1ccc(F)cc1[C@H](Cn1c(=O)n([C@H]2CCCN(C)C2=O)c(=O)c2c(C)c(-n3nccn3)sc21)OC1CCOCC1 [Compound I-39]
subjectOfTest: UniProt:O00763
IC50: 2 to 10 nM
//
molecule: COCCO[C@@H](Cn1c(=O)n([C@@]2(C)CCCN(C)C2=O)c(=O)c2c(C)c(-n3nccn3)sc21)c1cc(F)ccc1OC [Compound I-130]
subjectOfTest: UniProt:O00763
IC50: 100 to 1000 nM
//
molecule: COc1ccc(F)cc1[C@H](Cn1c(=O)n(C2CCN(C)C2=O)c(=O)c2c(C)c(-c3ncco3)sc21)OCCO (some centres unmarked) [Compound I-55]
subjectOfTest: UniProt:O00763
IC50: 10 to 100 nM
//
molecule: COCCO[C@@H](Cn1c(=O)n([C@H]2CCN(C(C)C)C2=O)c(=O)c2c(C)c(-n3nccn3)sc21)c1cc(F)ccc1OC [Compound I-104]
subjectOfTest: UniProt:O00763
IC50: 10 to 100 nM
